TARGET: FLT3 (Homo sapiens, UniProt P36888)
Sequence (P36888 27-993): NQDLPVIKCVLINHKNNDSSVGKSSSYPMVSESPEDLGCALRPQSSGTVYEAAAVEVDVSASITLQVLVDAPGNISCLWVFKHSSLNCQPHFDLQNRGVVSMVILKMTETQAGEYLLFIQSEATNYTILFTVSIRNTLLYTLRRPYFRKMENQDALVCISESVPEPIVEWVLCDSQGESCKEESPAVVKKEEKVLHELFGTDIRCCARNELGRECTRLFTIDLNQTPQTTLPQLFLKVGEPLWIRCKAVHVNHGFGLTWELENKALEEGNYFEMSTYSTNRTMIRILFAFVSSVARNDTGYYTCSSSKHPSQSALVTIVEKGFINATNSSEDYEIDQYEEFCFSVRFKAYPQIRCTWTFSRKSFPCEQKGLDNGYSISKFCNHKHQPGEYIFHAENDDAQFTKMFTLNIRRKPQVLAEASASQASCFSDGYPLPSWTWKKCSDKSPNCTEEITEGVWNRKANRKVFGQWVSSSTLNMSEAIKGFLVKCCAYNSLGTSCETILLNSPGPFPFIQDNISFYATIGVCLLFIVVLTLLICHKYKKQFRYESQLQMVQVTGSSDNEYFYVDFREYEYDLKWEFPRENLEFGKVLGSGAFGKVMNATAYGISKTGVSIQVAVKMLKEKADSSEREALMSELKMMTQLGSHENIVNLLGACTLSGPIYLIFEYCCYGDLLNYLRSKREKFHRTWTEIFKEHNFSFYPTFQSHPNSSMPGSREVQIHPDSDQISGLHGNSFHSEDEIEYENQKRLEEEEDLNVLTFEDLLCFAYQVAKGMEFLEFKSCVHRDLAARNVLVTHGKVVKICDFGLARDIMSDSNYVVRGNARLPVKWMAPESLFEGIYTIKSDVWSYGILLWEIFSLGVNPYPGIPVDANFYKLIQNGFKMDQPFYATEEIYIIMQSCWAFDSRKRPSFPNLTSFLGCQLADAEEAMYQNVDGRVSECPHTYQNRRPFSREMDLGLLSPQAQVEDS
MEASUREMENT PROTOCOL: FLT3 biochemical assay (ADP Hunter);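 further: FLT3 enzymatic activity quantified through the ADP produced by the kinase reaction, detected with an ADP Hunter readout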
STATED CONDITIONS: semi-quantitative class
QUANTITY KIND: IC50

// worked examples, IC50 included
| COMPOUND | TARGET | QUANTITY KIND | ASSAY RESULT |
| --- | --- | --- | --- |
| FC(F)(F)Oc1cccc(-n2nnc3cc(Cl)c(NCC4CC5(CCNCC5)C4)nc32)c1 [2-77] | FLT3 (Homo sapiens, UniProt P36888) | IC50 | > 1000 nM |
| FC(F)(F)Oc1cccc(-n2nnc3ccc(N4CCOC5(CCNCC5)C4)nc32)c1 [2-58] | FLT3 (Homo sapiens, UniProt P36888) | IC50 | > 1000 nM |
| FC(F)(F)c1cccc(-n2nnc3ccc(N4CCCC5(CCCN5)CC4)nc32)c1 (centres unmarked) [2-81] | FLT3 (Homo sapiens, UniProt P36888) | IC50 | 100 to 1000 nM |

Give its IC50 value. Item: FC(F)(F)Oc1cccc(-n2nnc3ccc(N4CCNCC4)nc32)c1 [2-69]
> 1000 nM

One more compound: O[C@H]1CC[C@@H](CNc2ccc3nnn(-c4cccc(OC(F)(F)F)c4)c3n2)CC1 [2-57]
> 1000 nM
